Target: T1, human GIP receptor (human), P48546
T1 chain: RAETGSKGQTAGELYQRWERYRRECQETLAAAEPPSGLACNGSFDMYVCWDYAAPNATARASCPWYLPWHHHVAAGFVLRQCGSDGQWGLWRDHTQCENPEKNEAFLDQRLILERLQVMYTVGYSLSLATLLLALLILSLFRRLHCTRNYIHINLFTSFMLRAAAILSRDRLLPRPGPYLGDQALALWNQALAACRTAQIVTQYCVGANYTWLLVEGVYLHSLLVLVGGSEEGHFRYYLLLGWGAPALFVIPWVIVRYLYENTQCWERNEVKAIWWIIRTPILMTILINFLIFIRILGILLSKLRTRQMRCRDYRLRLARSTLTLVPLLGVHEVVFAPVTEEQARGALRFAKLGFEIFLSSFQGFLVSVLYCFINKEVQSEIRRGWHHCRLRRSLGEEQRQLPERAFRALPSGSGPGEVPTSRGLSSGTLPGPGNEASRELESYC
Test: cell-based or functional assay
*1 amine or outer side, *2 acyl side, *3 side chain or, on linkers, in order; H or OH if unused. Where no end group is shown, it is not given here. Side-chain parts run from the residue outwards. [ ]: non-standard residue; d: D form. The star is where a group is joined. C20 diacid = O=C(O)CCCCCCCCCCCCCCCCCCC(=O)*; γGlu = O=C(O)[C@H](CCC(=O)[*:2])N[*:1]; αMeL = CC(C)C[C@](C)(N)C(=O)O; αMeK = C[C@](N)(CCCCN)C(=O)O; AEEA = NCCOCCOCC(=O)O; Aib = CC(C)(N)C(=O)O
endpointName: cAMP EC50 (FBS and BSA present) (nM)
Number only, in nM; omit the unit.

binder="Y[Aib]QGTFTSDYSILLDKK([AEEA-AEEA-γGlu-C20 diacid])AQ[Aib]AFIEYLLEGGPSSGAPPPS-NH2 [Example 16]" endpointname="cAMP EC50 (FBS and BSA present)" resultnumber=4.37
binder="Y[Aib]QGTFTSDYSI[αMeL]LDKK([AEEA-AEEA-γGlu-C20 diacid])AAQAFIEYLLEGGPSSGAPPPS-NH2 [Example 6]" endpointname="cAMP EC50 (FBS and BSA present)" resultnumber=7.41

Then there is this binder:
Prompt: Note cAMP EC50 (FBS and BSA present) for the binder shown: Y[Aib]QGTFTSDYSI[αMeL]LDKK([AEEA-AEEA-γGlu-C20 diacid])AQ[αMeK]AFIEYLLEGGPSSGAPPPS-NH2 [Example 3]
Completion: 1.91

These measurements were taken from patent US20250313605A1.
